B1: H2-Kb / Ed31 (parent complex)
chain 1: GQQVQQSPASLVLQEGENAELQCNFSTSLNSMQWFYQRPGGSLVSLFYNPSGTKHSGRLTSTTVIKERRSSLHISSSQTTDSGTYLCALEGNYAQGLTFGLGTRVSVFP
chain 2: ETAVFQTPNYHVTQVGNEVSFNCKQTLGHDTMYWYKQDSKKLLKIMFSYNNKQLIVNETVPRRFSPQSSDKAHLNLRIKSVEPEDSAVYLCASRSAGEQYFGPGTRLTVL
chain 3: not shown
chain 4: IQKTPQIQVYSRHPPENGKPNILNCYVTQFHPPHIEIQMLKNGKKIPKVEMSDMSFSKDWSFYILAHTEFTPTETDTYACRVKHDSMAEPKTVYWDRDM
chain 5: SIINFEKL

# Variants of: B1
# assay comment: % of reporter cells activated (NFAT-GFP), raw; note: test concentration or dose not given here
observable: ratio to parent

Q) Returns the measured ratio to parent for the input variant. Input: chain 5 K7Q
A) 0.146

Q) Returns the measured ratio to parent for the input variant. Input: chain 5 I3A
A) 0.523

Q) Returns the measured ratio to parent for the input variant. Input: chain 5 L8V
A) 0.812

Q) Returns the measured ratio to parent for the input variant. Input: chain 5 I2Y
A) 0.658

Q) Returns the measured ratio to parent for the input variant. Input: chain 5 F5D
A) 0.536

Q) Returns the measured ratio to parent for the input variant. Input: chain 5 I2E
A) 1.11

Q) Returns the measured ratio to parent for the input variant. Input: chain 5 I3E
A) 0.499

Q) Returns the measured ratio to parent for the input variant. Input: chain 5 I3P
A) 0.894

Q) Returns the measured ratio to parent for the input variant. Input: chain 5 S1W
A) 0.498

Q) Returns the measured ratio to parent for the input variant. Input: chain 5 S1Y
A) 0.934

Q) Returns the measured ratio to parent for the input variant. Input: chain 5 K7Y
A) 0.167

Q) Returns the measured ratio to parent for the input variant. Input: chain 5 F5N
A) 0.525

Q) Returns the measured ratio to parent for the input variant. Input: chain 5 S1H
A) 1.04

Q) Returns the measured ratio to parent for the input variant. Input: chain 5 E6K
A) 0.777

Q) Returns the measured ratio to parent for the input variant. Input: chain 5 K7N
A) 0.185

Q) Returns the measured ratio to parent for the input variant. Input: chain 5 N4F
A) 0.127

Q) Returns the measured ratio to parent for the input variant. Input: chain 5 N4H
A) 0.0784

Q) Returns the measured ratio to parent for the input variant. Input: chain 5 E6V
A) 0.00379

Q) Returns the measured ratio to parent for the input variant. Input: chain 5 E6M
A) 0.25

Q) Returns the measured ratio to parent for the input variant. Input: chain 5 I3L
A) 1.02

Q) Returns the measured ratio to parent for the input variant. Input: chain 5 L8T
A) 0.862

Q) Returns the measured ratio to parent for the input variant. Input: chain 5 K7A
A) 0.41

Q) Returns the measured ratio to parent for the input variant. Input: chain 5 K7T
A) 0.102

Q) Returns the measured ratio to parent for the input variant. Input: chain 5 E6A
A) 0.0173

Q) Returns the measured ratio to parent for the input variant. Input: chain 5 I3V
A) 0.982

Q) Returns the measured ratio to parent for the input variant. Input: chain 5 I2L
A) 1.12

Q) Returns the measured ratio to parent for the input variant. Input: chain 5 F5M
A) 0.917

Q) Returns the measured ratio to parent for the input variant. Input: chain 5 E6H
A) 0.174

Q) Returns the measured ratio to parent for the input variant. Input: chain 5 N4K
A) 0.0359

Q) Returns the measured ratio to parent for the input variant. Input: chain 5 L8C
A) 0.602

Q) Returns the measured ratio to parent for the input variant. Input: chain 5 I2N
A) 0.832

Q) Returns the measured ratio to parent for the input variant. Input: chain 5 I2R
A) 0.851

Q) Returns the measured ratio to parent for the input variant. Input: chain 5 F5A
A) 0.866

Q) Returns the measured ratio to parent for the input variant. Input: chain 5 L8R
A) 0.791

Q) Returns the measured ratio to parent for the input variant. Input: chain 5 F5S
A) 0.753

Q) Returns the measured ratio to parent for the input variant. Input: chain 5 K7L
A) 0.141

Q) Returns the measured ratio to parent for the input variant. Input: chain 5 I2M
A) 1.07

Q) Returns the measured ratio to parent for the input variant. Input: chain 5 I2K
A) 0.818

Q) Returns the measured ratio to parent for the input variant. Input: chain 5 N4Y
A) 0.242

Q) Returns the measured ratio to parent for the input variant. Input: chain 5 S1C
A) 0.44

Q) Returns the measured ratio to parent for the input variant. Input: chain 5 N4P
A) 0.0223

Q) Returns the measured ratio to parent for the input variant. Input: chain 5 N4S
A) 0.00781

Q) Returns the measured ratio to parent for the input variant. Input: chain 5 N4D
A) 0.00288

Q) Returns the measured ratio to parent for the input variant. Input: chain 5 N4C
A) 0.031

Q) Returns the measured ratio to parent for the input variant. Input: chain 5 E6I
A) 0.000832

Q) Returns the measured ratio to parent for the input variant. Input: chain 5 N4A
A) 0.0503
